// provenance: patent US6352958B1

system: soybean (Glycine max var. Winchester); experiment: Preemergence herbicidal activity, soybean; format: in vivo; details: Rate of Application 0.3 Kg/Ha, examined after 12-17 days
experimentalEndpoint: PREEMERGENCE HERBICIDAL ACTIVITY (% CONTROL) SOY (%)

structureAsSmiles | unitsSymbol | resultNumber
Cn1c(C(F)(F)F)cc(=O)n(-c2c(F)cc(Br)c3oc(N)nc23)c1=O | % | 50
Cn1c(C(F)(F)F)cc(=O)n(-c2c(F)cc(Br)c3oc(COc4ccc(Cl)cc4)nc23)c1=O | % | 20
Cn1c(C(F)(F)F)cc(=O)n(-c2c(F)cc(Cl)c3oc(C(C)(C)C)nc23)c1=O | % | 100
Cn1c(C(F)(F)F)cc(=O)n(-c2c(F)cc(Cl)c3nc(Cc4ccc(Cl)cc4)[nH]c23)c1=O | % | 80
Cn1c(C(F)(F)F)cc(=O)n(-c2c(F)cc(Cl)c3cc(C(C)(C)O)oc23)c1=O | % | 100
CNC(=O)c1cc2c(Cl)ccc(-n3c(=O)cc(C(F)(F)F)n(C)c3=O)c2o1 | % | 70
Cn1c(C(F)(F)F)cc(=O)n(-c2ccc(Cl)c3cc(CO)oc23)c1=O | % | 100
Cn1c(C(F)(F)F)cc(=O)n(-c2c(F)cc(Cl)c3[nH]c(C(F)(F)Cl)nc23)c1=O | % | 10

###

test system: morningglory (Ipomea lacunosa or Ipomea hederacea); assay: Postemergence herbicidal activity, morningglory; format: in vivo; conditions: rate of application 0.3 Kg/Ha, rated after 12-17 days
experimentalEndpoint: Postemergence herbicidal activity (% control) IPOSS

molecule | result
Cn1c(C(F)(F)F)cc(=O)n(-c2c(F)cc(Cl)c3oc(C(C)(C)C)nc23)c1=O | 100%
CC(OC(=O)NCc1ccccc1)c1cc2c(Cl)cc(F)c(-n3c(=O)cc(C(F)(F)F)n(C)c3=O)c2o1 (stereo not shown) | 100%
Cn1c(C(F)(F)F)cc(=O)n(-c2c(F)cc(Cl)c3cc(CCF)oc23)c1=O | 100%
Cn1c(C(F)(F)F)cc(=O)n(-c2c(F)cc(Br)c3oc(COc4ccc(Cl)cc4)nc23)c1=O | 100%
CC(C)Oc1nc2c(-n3c(=O)cc(C(F)(F)F)n(C)c3=O)c(F)cc(Br)c2o1 | 100%
CC(C)c1cc2c(Cl)cc(F)c(-n3c(=O)cc(C(F)(F)F)n(C)c3=O)c2o1 | 100%
CC(OC(C)(C)C)c1cc2c(Cl)cc(F)c(-n3c(=O)cc(C(F)(F)F)n(C)c3=O)c2o1 (stereo not shown) | 100%
COC(=O)Cc1nc2c(-n3c(=O)cc(C(F)(F)F)n(C)c3=O)c(F)cc(Br)c2o1 | 100%
CN(C)C(=O)c1cc2c(Cl)ccc(-n3c(=O)cc(C(F)(F)F)n(C)c3=O)c2o1 | 100%
Cn1c(C(F)(F)F)cc(=O)n(-c2c(F)cc(Cl)c3nc(-c4ccccc4)[nH]c23)c1=O | 95%
COC(C)(C)c1cc2c(Cl)ccc(-n3c(=O)cc(C(F)(F)F)n(C)c3=O)c2o1 | 100%
Cn1c(C(F)(F)F)cc(=O)n(-c2c(F)cc(Cl)c3nc(COc4ccccc4)[nH]c23)c1=O | 90%
Cn1c(C(F)(F)F)cc(=O)n(-c2c(F)cc(Br)c3oc(COc4ccccc4)nc23)c1=O | 100%
CNC(=O)OC(C)c1cc2c(Cl)cc(F)c(-n3c(=O)cc(C(F)(F)F)n(C)c3=O)c2o1 (stereo not shown) | 100%
Cn1c(C(F)(F)F)cc(=O)n(-c2c(F)cc(Br)c3oc(NS(C)(=O)=O)nc23)c1=O | 60%
Cc1nc2c(-n3c(=O)cc(C(F)(F)F)n(C)c3=O)c(F)cc(Cl)c2o1 | 100%

###

test system: morningglory (Ipomea lacunosa or Ipomea hederacea); experiment: Postemergence herbicidal activity, morningglory; assay type: in vivo; conditions: rate of application 0.3 Kg/Ha, rated after 12-17 days
experimentalEndpoint: Postemergence herbicidal activity (% control) IPOSS (%)

structureAsSmiles | resultNumber
Cn1c(C(F)(F)F)cc(=O)n(-c2ccc(Cl)c3cc(-c4ccccc4)oc23)c1=O | 40
CNC(=O)c1cc2c(Cl)ccc(-n3c(=O)cc(C(F)(F)F)n(C)c3=O)c2o1 | 60
Cn1c(C(F)(F)F)cc(=O)n(-c2c(F)cc(Cl)c3c2nc(C(F)(F)F)n3C)c1=O | 100
CCc1nc2c(-n3c(=O)cc(C(F)(F)F)n(C)c3=O)c(F)cc(Cl)c2o1 | 100
Cn1c(C(F)(F)F)cc(=O)n(-c2c(F)cc(Cl)c3nc(CCCc4ccccc4)[nH]c23)c1=O | 100
CCOC(=O)c1cc2c(-n3c(=O)cc(C(F)(F)F)n(C)c3=O)c(F)cc(Cl)c2n1C | 100
CN(C)C(=O)c1cc2c(Cl)cc(F)c(-n3c(=O)cc(C(F)(F)F)n(C)c3=O)c2o1 | 100
Cn1c(C(F)(F)F)cc(=O)n(-c2c(F)cc(Cl)c3oc(N)nc23)c1=O | 100

###

Overview of recorded inhibition at 300 g/ha for various compounds
test system: morningglory (Ipomea lacunosa or Ipomea hederacea); assay: Postemergence herbicidal activity, morningglory; type: in vivo; settings: Ipomoea, post-emergence, rate of application 0.3 Kg/Ha, rated after 12-17 days, read-out: Postemergence herbicidal activity (% control) IPOSS
experimentalEndpoint: inhibition at 300 g/ha (%)

structureAsSmiles | resultNumber
COc1nc2c(-n3c(=O)cc(C(F)(F)F)n(C)c3=O)c(F)cc(Br)c2o1 | 100
Cn1c(C(F)(F)F)cc(=O)n(-c2c(F)cc(Cl)c3[nH]c(C(F)(F)F)nc23)c1=O | 100
Cn1c(C(F)(F)F)cc(=O)n(-c2c(F)cc(Cl)c3[nH]c(C(C)(C)C)nc23)c1=O | 100

###

tested on: morningglory (Ipomea lacunosa or Ipomea hederacea); experiment: Postemergence herbicidal activity, morningglory; format: in vivo; settings: rate of application 0.3 Kg/Ha, rated after 12-17 days
experimentalEndpoint: Postemergence herbicidal activity (% control) IPOSS (%)

compound | unitsSymbol | resultNumber
CCOC(OCC)c1cc2c(Cl)cc(F)c(-n3c(=O)cc(C(F)(F)F)n(C)c3=O)c2o1 | % | 100
Cn1c(C(F)(F)F)cc(=O)n(-c2c(F)cc(F)c3cc(C(C)(C)C)oc23)c1=O | % | 100
CC(=O)Nc1nc2c(-n3c(=O)cc(C(F)(F)F)n(C)c3=O)c(F)cc(Br)c2o1 | % | 100
Cn1c(C(F)(F)F)cc(=O)n(-c2c(F)cc(Cl)c3[nH]c(C(F)(F)Cl)nc23)c1=O | % | 80
Cn1c(C(F)(F)F)cc(=O)n(-c2c(F)cc(Cl)c3cc(C(C)(C)C)oc23)c1=O | % | 100
Cn1c(C(F)(F)F)cc(=O)n(-c2c(F)cc(Cl)c3[nH]c(C45CC6CC(CC(C6)C4)C5)nc23)c1=O | % | 95
CC(=O)OC(c1ccccc1)c1nc2c(-n3c(=O)cc(C(F)(F)F)n(C)c3=O)c(F)cc(Br)c2o1 (stereo not shown) | % | 80

###

system: morningglory (Ipomea lacunosa or Ipomea hederacea); test: Preemergence herbicidal activity, morningglory; assay type: in vivo; conditions: Rate of Application 0.3 Kg/Ha, examined after 12-17 days
Overview of recorded PREEMERGENCE HERBICIDAL ACTIVITY (% CONTROL) IPOSS for various compounds
experimentalEndpoint: PREEMERGENCE HERBICIDAL ACTIVITY (% CONTROL) IPOSS (%)

structureAsSmiles | resultNumber
Cn1c(C(F)(F)F)cc(=O)n(-c2c(F)cc(F)c3cc(C(C)(C)C)oc23)c1=O | 100
CCCc1cc2c(Cl)cc(F)c(-n3c(=O)cc(C(F)(F)F)n(C)c3=O)c2o1 | 100
Cc1nc2c(-n3c(=O)cc(C(F)(F)F)n(C)c3=O)c(F)cc(Br)c2o1 | 100
CN(C)C(=O)c1cc2c(Cl)cc(F)c(-n3c(=O)cc(C(F)(F)F)n(C)c3=O)c2o1 | 100
Cn1c(C(F)(F)F)cc(=O)n(-c2c(F)cc(Cl)c3cc(C(N)=O)oc23)c1=O | 100
CNC(=O)c1cc2c(Cl)ccc(-n3c(=O)cc(C(F)(F)F)n(C)c3=O)c2o1 | 100
Cn1c(C(F)(F)F)cc(=O)n(-c2c(F)cc(Br)c3oc(NS(C)(=O)=O)nc23)c1=O | 50
Cn1c(C(F)(F)F)cc(=O)n(-c2c(F)cc(Cl)c3[nH]c(C(F)(F)Cl)nc23)c1=O | 20

###

system: morningglory (Ipomea lacunosa or Ipomea hederacea); experiment: Preemergence herbicidal activity, morningglory; assay type: in vivo; conditions: Rate of Application 0.3 Kg/Ha, examined after 12-17 days
experimentalEndpoint: PREEMERGENCE HERBICIDAL ACTIVITY (% CONTROL) IPOSS

molecule | result
CNC(=O)c1cc2c(Cl)cc(F)c(-n3c(=O)cc(C(F)(F)F)n(C)c3=O)c2o1 [Compound 274] | 100%
Cn1c(C(F)(F)F)cc(=O)n(-c2c(F)cc(Cl)c3nc(-c4ccccc4)[nH]c23)c1=O [Compound 375] | 80%
CCCc1nc2c(-n3c(=O)cc(C(F)(F)F)n(C)c3=O)c(F)cc(Cl)c2o1 [Compound 26] | 100%
Cn1c(C(F)(F)F)cc(=O)n(-c2c(F)cc(Cl)c3cc(CCCl)oc23)c1=O [Compound 236] | 100%
CCCC(C)c1cc2c(Cl)cc(F)c(-n3c(=O)cc(C(F)(F)F)n(C)c3=O)c2o1 (centres unmarked) [Compound 229] | 100%
CC(O)Cc1cc2c(Cl)cc(F)c(-n3c(=O)cc(C(F)(F)F)n(C)c3=O)c2o1 (centres unmarked) [Compound 243] | 100%
CC(OC(C)(C)C)c1cc2c(Cl)cc(F)c(-n3c(=O)cc(C(F)(F)F)n(C)c3=O)c2o1 (centres unmarked) [Compound 244] | 90%
Cc1cc2c(Cl)cc(F)c(-n3c(=O)cc(C(F)(F)F)n(C)c3=O)c2o1 [Compound 222] | 100%
